test system: Mus musculus; assay: Toxicity in Mus musculus Swiss albino (mouse) infected with promastigote stage of Leishmania major MHOM/IL/81/FEBNI assessed as severe irritation of epidermis at 20 umol administered 21 days post infection measured after 5 weeks; type: organism-based; conditions: in vivo, 840 h
Measured Attribute: Activity

For orientation, consider the following solved cases.
> print(dat)
                                   molecule  assay.result
1  C/C=C/C(=O)NNC(=O)C1=C(C)NC(=S)NC1c1cccc([N+](=O)[O-])c1 (stereo not given)     Non-toxic
2  CC1=C(C(=O)N(CCCl)CCCl)C(c2cccc([N+](=O)[O-])c2)NC(=S)N1 (stereo not given)     Non-toxic
3  CC1=C(C(=O)NNC(=O)c2ccccc2O)C(c2cccc([N+](=O)[O-])c2)NC(=S)N1 (stereo not given)         Toxic
4  CC1=C(C(=O)NNC(=O)c2ccccc2O)C(c2cccc([N+](=O)[O-])c2)NC(=O)N1 (stereo not given)         Toxic

Given the entry CC(=O)Nc1ccc(NC(=O)C2=C(C)NC(=O)NC2c2ccc(N(C)C)cc2)cc1 (stereo not given) , report its measured Activity.
Toxic

All figures here come from ChEMBL document CHEMBL3045356.
